- System: T98G
- assay.remarks: Cytotoxicity against human T98G cells after 72 hrs by WST-1 assay
- Type: functional, cell-based
readout.label: EC50 (µM)

>>> print(df.to_string())
                                smiles_code  readout_label  limit_qualifier  numeric_value
0  CCn1c2ccccc2c2cc(C(=O)c3cccc4cccnc34)ccc21           EC50                =            8.8
1  CCn1c2ccccc2c2cc(C(=O)c3cccc4ccccc34)ccc21           EC50                =            1.7
2  CCn1c2ccccc2c2cc(C(=O)c3cccc4c3NCCC4)ccc21           EC50                >             10
3  CCn1c2ccc(C(=O)c3ccc(C)c4ccccc34)cc2c2ccc(OC)cc21           EC50                =            2.6
4     CCn1c2ccccc2c2cc(C(=O)Cc3ccccc3)ccc21           EC50                >             10
5  CCn1c2c(c3ccccc31)CN(C(=O)c1ccc(C)c3ccccc13)CC2           EC50                >             10
